These entries and their values trace back to ChEMBL document CHEMBL3751705.

assay_comment: Cytotoxicity against C57BL/6 mouse peritoneal macrophages assessed as cell viability by lactate dehydrogenase release assay
Format: cell-based
experimental_parameters: C57BL/6, Peritoneal macrophage cell
readout_type: IC50 (µg/mL)
Please give a number only; it is taken to be in µg/mL.

Could you share which IC50 value was measured for `CCOC(=O)c1[nH]c2ccccc2c1/C=N\NC(=O)c1cc[n+]([O-])cc1` ?
18

Would you kindly repeat that for `Cc1ccc2[nH]c(C(=O)O)c(/C=N\NC(=O)c3ccncc3)c2c1` ?
25

Would you kindly repeat that for `O=C(N/N=C\c1c[nH]c2ccccc12)c1ccncc1` ?
40

Would you kindly repeat that for `CC(=O)n1cc(NNC(=O)c2ccncc2)c2ccccc21` ?
50

Would you kindly repeat that for `CCOC(=O)c1[nH]c2ccc(C)cc2c1/C=N\NC(=O)c1ccncc1` ?
15

Would you kindly repeat that for `NNC(=O)c1cc[n+]([O-])cc1` ?
60

Would you kindly repeat that for `CC(=O)n1cc(NNC(=O)c2ccc[n+]([O-])c2)c2ccccc21` ?
17

Would you kindly repeat that for `CCOC(=O)c1[nH]c2ccccc2c1/C=N\NC(=O)c1ccncc1` ?
16
